- System: MS2 coat protein
- test: apparent KD of MS2 coat protein, switch OFF state (with FMN for OFF switches, without FMN for ON switches); designed switch direction (-1 OFF switch, 1 ON switch): 1; higher = weaker reporter binding
- conditions.used: FMN input: 0 or 200 uM; Eterna round: R93 (includes R88 designs)

| sequence.entry | tgt | apparent KD of MS2 coat protein / µM |
| --- | --- | --- |
| CAUAGACAUGAGGAUCACCCAUGUAGAAUUAUGGGAGGAUAUACAAAGACGAGAGUCAGAGUAGAAGGCCUAGGAG [salish99-ss1-163] | MS2 coat protein | 0.034 |
| GAGAAGAAGAGAGAGGAUAUCCAAAGGAAAACAUGAGGAUCACCCAUGUAAAAGGUAGGAAAUUGGGAGAAGGCUCAAAAGAGGG [salish99-ss2-028(!)] | MS2 coat protein | 0.044 |
| GAAGACAUAGUAUAGGAUAUAUGAAUAAUUACAUGAGGAUCACCCAUGUGCAUUUAUAUGCGAACAUAGAAGGGUGGUAGUUGUC [Mat - Same state - Malcolm Mod - D129] | MS2 coat protein | 0.0592 |
| CAUCAUGCGCCUAAGGAUAUGUCUCACAAGACAUGAGGAUCACCCAUGUAGAAUAAAUAAAUGAUGCAGAAGGUGGAGCACAUGC [Leedanla] | MS2 coat protein | 0.586 |
| AUUAAAUAUAGUUAGGAUAUAAUAUGUAAGACAUGAGGAUCACCCAUGUCCUAAGAAUAGUUAAAUUAGAAGGAACAGUGAAUAU [JR_SS002_Sub420] | MS2 coat protein | 0.0245 |
| AAGAAACAUGAGGAUCACCCAUGUGAGAUAAACACAGGAUAUGCGAAAAUAAAUAAAUAAGCAGAAGGGUGAAGAA [Mat - Same State 1 - Tesla mod - 69] | MS2 coat protein | 0.0826 |
